- Assay target: recombinant F508del V470 CFTR in Fischer rat thyroid (FRT) cells (Homo sapiens, UniProt P13569, DEL508-508)
- Sequence (P13569 with tags, fused parts or gaps DEL508-508): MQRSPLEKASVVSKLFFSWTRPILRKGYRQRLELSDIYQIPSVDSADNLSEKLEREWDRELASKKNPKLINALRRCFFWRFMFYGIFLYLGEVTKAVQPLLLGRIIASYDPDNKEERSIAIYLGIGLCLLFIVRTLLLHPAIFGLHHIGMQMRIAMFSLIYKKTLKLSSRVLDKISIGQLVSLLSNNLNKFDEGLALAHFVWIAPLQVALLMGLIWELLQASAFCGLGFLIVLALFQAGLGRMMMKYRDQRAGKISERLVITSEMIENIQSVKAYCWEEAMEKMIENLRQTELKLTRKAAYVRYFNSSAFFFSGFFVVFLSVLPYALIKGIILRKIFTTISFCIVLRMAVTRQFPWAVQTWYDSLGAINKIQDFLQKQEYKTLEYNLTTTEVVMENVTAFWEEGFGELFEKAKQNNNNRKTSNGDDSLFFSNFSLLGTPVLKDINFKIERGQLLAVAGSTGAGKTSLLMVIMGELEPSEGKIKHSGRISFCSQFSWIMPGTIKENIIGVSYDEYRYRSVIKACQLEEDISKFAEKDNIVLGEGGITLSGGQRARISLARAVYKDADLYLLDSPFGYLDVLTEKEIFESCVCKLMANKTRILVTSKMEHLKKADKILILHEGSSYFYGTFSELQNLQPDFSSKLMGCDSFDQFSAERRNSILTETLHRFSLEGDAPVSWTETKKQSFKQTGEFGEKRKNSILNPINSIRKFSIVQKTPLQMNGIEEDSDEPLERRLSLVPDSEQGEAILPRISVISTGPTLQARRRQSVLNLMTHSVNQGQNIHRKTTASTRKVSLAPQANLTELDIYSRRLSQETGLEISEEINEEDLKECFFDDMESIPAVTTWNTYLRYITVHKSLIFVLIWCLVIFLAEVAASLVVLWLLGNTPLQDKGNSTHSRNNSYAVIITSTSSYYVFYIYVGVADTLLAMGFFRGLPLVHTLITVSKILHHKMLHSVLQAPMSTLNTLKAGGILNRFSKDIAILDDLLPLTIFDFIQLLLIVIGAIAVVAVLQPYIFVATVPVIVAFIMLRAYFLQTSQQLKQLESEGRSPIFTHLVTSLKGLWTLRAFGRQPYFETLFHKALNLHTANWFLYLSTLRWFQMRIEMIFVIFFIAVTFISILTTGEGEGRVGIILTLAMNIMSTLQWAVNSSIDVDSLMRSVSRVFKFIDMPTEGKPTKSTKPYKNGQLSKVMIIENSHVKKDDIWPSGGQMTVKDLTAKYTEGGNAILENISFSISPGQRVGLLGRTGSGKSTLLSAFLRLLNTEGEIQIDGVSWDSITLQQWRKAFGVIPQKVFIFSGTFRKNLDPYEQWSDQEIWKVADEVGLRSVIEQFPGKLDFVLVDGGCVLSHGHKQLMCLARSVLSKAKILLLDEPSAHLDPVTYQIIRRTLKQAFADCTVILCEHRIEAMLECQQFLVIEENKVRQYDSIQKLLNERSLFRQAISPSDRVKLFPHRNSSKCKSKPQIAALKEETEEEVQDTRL
- Experiment: FRT ion flux assay of F508del CFTR potentiation
- Condition parameters: FRT cells expressing F508del V470 CFTR, forskolin 20 uM, 27° C. pre-incubation
pEC50: −log10 of the molar value.
Experimental endpoint: pEC50

{"Compound": "CCC(c1cn(-c2ccc(F)c(F)c2)nn1)n1cc(-c2cncnc2OC)c2c(N)ncnc21 (stereo not shown) [Example 245]", "Observed result": 7.37}
{"Compound": "COc1nc(C(F)(F)F)ccc1-c1cn(Cc2cn(-c3ccccc3F)nn2)c2ncnc(N)c12 [Example 206]", "Observed result": 7.64}
{"Compound": "Cc1c(C(C)n2c(C#N)c(-c3cnc(C(F)(F)F)nc3)c3c(N)ncnc32)nnn1-c1ccccc1F (single isomer, unassigned) [Example 12]", "Observed result": 8.18}
{"Compound": "N#Cc1c(-c2cnc(C(F)(F)F)nc2)c2c(N)ncnc2n1Cc1cnn(-c2ccc(F)cc2F)c1 [Example 29]", "Observed result": 8.63}

###

- Assay target: recombinant F508del V470 CFTR in Fischer rat thyroid (FRT) cells (Homo sapiens, UniProt P13569, DEL508-508)
- Experiment: FRT ion flux assay of F508del CFTR potentiation
- Condition parameters: FRT cells expressing F508del V470 CFTR, forskolin 20 uM, 27° C. pre-incubation
pEC50: −log10 of the molar value.
Cut-off 6 on pEC50, inclusive. At or above means t; below means f.

{"Molecule": "CC(c1cn(-c2ccc(F)cc2F)nn1)n1c(C#N)c(-c2ccc(OC3CC3)nc2)c2c(N)ncnc21 (single isomer, unassigned; enantiomer 2) [Example 321]", "Assigned category": "t"}
{"Molecule": "CC(c1cn(-c2ncccc2F)nn1)n1ccc2c(Nc3ccc(OC4CC4)cc3)ncnc21 (stereo not drawn)", "Assigned category": "t"}
{"Molecule": "Cc1c(-c2ccc(Cl)cc2)c2c(N)ncnc2n1C(C)c1cn(-c2ccccc2F)nn1 (stereo not drawn)", "Assigned category": "t"}
{"Molecule": "CCC(c1cnn(-c2ccccc2F)c1)n1cc(-c2cnc(C(F)(F)F)nc2)c2c(N)ncnc21 (single isomer, unassigned; enantiomer 2) [Example 176]", "Assigned category": "t"}
{"Molecule": "COc1ncc(-c2cn(C(C)c3cc(-c4ccccc4F)no3)c3ncnc(N)c23)cn1 (single isomer, unassigned; (-)) [Example 183]", "Assigned category": "t"}
{"Molecule": "Nc1ncnc2c1c(C1CN(S(=O)(=O)CC3CC3)C1)cn2Cc1cn(-c2ccccc2F)nn1", "Assigned category": "f"}
{"Molecule": "COc1ncncc1-c1cn(Cc2cn(-c3ccccc3F)nn2)c2nc(C)nc(N)c12", "Assigned category": "f"}
{"Molecule": "Nc1ncnc2c1c(-c1ccc(OC3CC3)cc1)cn2Cc1cn(-c2ccccc2F)nn1", "Assigned category": "t"}
{"Molecule": "CC(c1cn(-c2ccccc2F)nn1)n1cc(C2CC2)c2c(N)ncnc21 (stereo not drawn) [Example 238]", "Assigned category": "t"}
{"Molecule": "CC(c1cn(-c2ccccc2F)nn1)n1cc(-c2ccc(Cl)cc2)c2c(N)ncnc21 (single isomer, unassigned) [Example 111]", "Assigned category": "t"}
{"Molecule": "CCC(c1cn(-c2cc(F)ccc2F)nn1)n1cc(-c2cncnc2OC)c2c(N)ncnc21 (single isomer, unassigned; enantiomer 1) [Example 307]", "Assigned category": "t"}
{"Molecule": "CC(c1cn(-c2ccccc2F)nn1)n1cc(-c2ccc3c(cnn3C)c2)c2c(N)ncnc21 (stereo not drawn)", "Assigned category": "t"}
{"Molecule": "CCC(c1nnn(-c2ccc(F)cc2F)c1C)n1cc(-c2cnc(C(F)(F)F)nc2)c2c(N)ncnc21 (single isomer, unassigned) [Example 189]", "Assigned category": "t"}
{"Molecule": "Cc1ccccc1-c1cc(C(C)n2cc(-c3ccc(Cl)cc3)c3c(N)ncnc32)on1 (stereo not drawn)", "Assigned category": "t"}
{"Molecule": "COc1nc(C)ccc1-c1cn(Cc2cn(-c3ccccc3F)nn2)c2ncnc(N)c12", "Assigned category": "t"}
{"Molecule": "CCC(c1cn(-c2ccc(F)c(F)c2)nn1)n1cc(-c2cnc(C(F)(F)F)nc2)c2c(N)ncnc21 (single isomer, unassigned; enantiomer 2) [Example 154]", "Assigned category": "t"}
{"Molecule": "CCC(c1cn(-c2ccc(F)c(F)c2)nn1)n1cc(-c2cncnc2OC)c2c(N)ncnc21 (single isomer, unassigned; enantiomer 2) [Example 152]", "Assigned category": "t"}
{"Molecule": "COc1ncccc1-c1cn(C(c2cn(-c3ccccc3F)nn2)C2CC2)c2ncnc(N)c12 (stereo not drawn)", "Assigned category": "t"}
{"Molecule": "CCC(c1cn(-c2ccccc2)nn1)n1cc(-c2cnc(C(F)(F)F)nc2)c2c(N)ncnc21 (single isomer, unassigned; enantiomer 1) [Example 129]", "Assigned category": "t"}
{"Molecule": "CC(c1cc(-c2ccccc2F)no1)n1cc(-c2ccnc3[nH]ccc23)c2c(N)ncnc21 (stereo not drawn)", "Assigned category": "f"}
{"Molecule": "CCC(c1cn(-c2ccccc2F)nn1)n1cc(-c2cc[nH]n2)c2c(N)ncnc21 (single isomer, unassigned; enantiomer 1) [Example 147]", "Assigned category": "t"}
{"Molecule": "Cc1nc(N)c2c(-c3ccc(Cl)cc3)cn(C(C)c3cn(-c4ccccc4F)nn3)c2n1 (stereo not drawn)", "Assigned category": "t"}
{"Molecule": "CC(c1cc(-c2ccccc2F)no1)n1cc(-c2cc3cnccc3s2)c2c(N)ncnc21 (stereo not drawn)", "Assigned category": "f"}
{"Molecule": "CCC(c1cn(-c2ccc(F)cc2F)nn1)n1cc(-c2cncnc2OC)c2c(N)ncnc21 (single isomer, unassigned; enantiomer 1) [Example 159]", "Assigned category": "t"}
{"Molecule": "Nc1ncnc2c1c(-c1ccc(Cl)cc1)cn2Cc1cn(C2CCCC2)nn1", "Assigned category": "t"}

###

- Assay target: CFTR in F508del/F508del primary CF hBE cells (Homo sapiens, UniProt P13569, DEL508-508)
- Construct: Primary cystic fibrosis human bronchial epithelial (CF hBE) cells were expanded and cultured; endogenous in cells
- Experiment: Ussing chamber electrophysiology assay of CFTR potentiation in F508del/F508del CF bronchial epithelial cells (27° C.)
Experimental endpoint: EC50 (µM)

{"Molecule": "COc1ncccc1-c1cn(Cc2cnn(-c3ccc(C(F)F)cc3)c2)c2ncnc(N)c12", "Assay target": "CFTR in F508del/F508del primary CF hBE cells (Homo sapiens, UniProt P13569, DEL508-508)", "Observed result": 0.0477}
{"Molecule": "CCC(c1cn(-c2ccc(F)c(F)c2)nn1)n1c(C#N)c(-c2cnc(C(F)(F)F)nc2)c2c(N)ncnc21 (single isomer, unassigned; enantiomer 1)", "Assay target": "CFTR in F508del/F508del primary CF hBE cells (Homo sapiens, UniProt P13569, DEL508-508)", "Observed result": 0.0338}
{"Molecule": "CCC(c1cn(-c2ccccc2F)nn1)n1cc(-c2cc(F)cnc2OC)c2c(N)ncnc21 (single isomer, unassigned; enantiomer 1) [Example 139]", "Assay target": "CFTR in F508del/F508del primary CF hBE cells (Homo sapiens, UniProt P13569, DEL508-508)", "Observed result": 0.003}
{"Molecule": "CC(c1cn(-c2ccc(F)cc2F)nn1)n1c(C#N)c(-c2ccc(OC3CC3)nc2)c2c(N)ncnc21 (single isomer, unassigned; enantiomer 2) [Example 321]", "Assay target": "CFTR in F508del/F508del primary CF hBE cells (Homo sapiens, UniProt P13569, DEL508-508)", "Observed result": 0.141}
{"Molecule": "COc1ncc(-c2c(C#N)n(C(C)c3cc(-c4ccccc4F)no3)c3ncnc(N)c23)cn1 (single isomer, unassigned) [Example 14]", "Assay target": "CFTR in F508del/F508del primary CF hBE cells (Homo sapiens, UniProt P13569, DEL508-508)", "Observed result": 0.013}

###

- Assay target: recombinant F508del V470 CFTR in Fischer rat thyroid (FRT) cells (Homo sapiens, UniProt P13569, DEL508-508)
- Experiment: FRT ion flux assay of F508del CFTR potentiation
- Condition parameters: FRT cells expressing F508del V470 CFTR, forskolin 20 uM, 27° C. pre-incubation
pEC50: −log10 of the molar value.
Experimental endpoint: pEC50

{"Compound": "CCC(c1cn(-c2ccccc2F)nn1)n1cc(-c2cnc(C(F)(F)F)nc2)c2c(N)ncnc21 (single isomer, unassigned; enantiomer 1) [Example 137]", "Observed result": 8.23}
{"Compound": "CC(c1cn(-c2ccccc2F)nn1)n1cc(-c2ccc(C#N)c(F)c2)c2c(N)ncnc21 (single isomer, unassigned; enantiomer 1) [Example 115]", "Observed result": 6.25}
{"Compound": "CC(c1cc(-c2ccccc2F)no1)n1cc(-c2ccc3c(c2)OCCO3)c2c(N)ncnc21 (stereo not shown) [Example 102]", "Observed result": 6.49}
{"Compound": "COc1ncccc1-c1cn(Cc2cnc(-c3ccccc3F)[nH]2)c2ncnc(N)c12 [Example 193]", "Observed result": 7.36}
{"Compound": "CCC(c1cn(-c2ccccc2F)nn1)n1cc(-c2nccnc2OC)c2c(N)ncnc21 (single isomer, unassigned; enantiomer 2) [Example 136]", "Observed result": 7.81}
{"Compound": "Nc1ncnc2c1c(C1CC1)cn2C1(c2cn(-c3ccccc3F)nn2)CC1 [Example 295]", "Observed result": 6.73}
{"Compound": "COc1ncncc1-c1cn(Cc2cn(-c3ccccc3F)nn2)c2ncnc(N)c12 [Example 200]", "Observed result": 7.00}
